protocol summary: Human plasma protein binding (equilibrium dialysis)
Format: in vitro ADME
condition info: 10 µM, 37 °C
Class (required): determined from human PPB (plasma protein binding); valid ranges are small value (below 70%), mid value (70% to below 80%), large value (80% or more)

Consider the following illustrative entries.
O=S(=O)(c1ccc(-c2ccc3nccc(NCC4CCOCC4)c3c2)cc1)N1CCOCC1 ... mid value
C[C@@H]1CNCCN1C(=O)c1ccc(-c2cnc(N3CCCN(C)CC3)nc2)cc1N ... small value
O=S(=O)(c1ccc(-c2ccc3nccc(Nc4ccncn4)c3c2)cc1)N1CCOCC1 ... large value
CN1CCCN(c2ncc(-c3ccc4nccc(Nc5ccncn5)c4c3)cn2)CC1 ... small value
C[C@@H]1CNCCN1C(=O)c1ccc(-c2cccc(N3CCOCC3)c2)cc1N ... small value

Exercise: Which category fits this record: "O=S(=O)(c1ccc(-c2ccc3nccc(NCCN4CCCC4)c3c2)cc1)N1CCOCC1"
Key: mid value

Exercise: Classify this compound: "CN1CCC(Nc2ccnc3ccc(-c4ccc(S(=O)(=O)N5CCOCC5)cc4)cc23)CC1"
Key: small value

Exercise: Place this compound in its band: "c1cnc(Nc2ccnc3cc(-c4cnc(N5CCOCC5)nc4)ccc23)cn1"
Key: large value

Exercise: Looking at "CS(=O)(=O)N1CCN(c2ncc(-c3ccc4c(Nc5cnccn5)ccnc4c3)cn2)CC1" , which class would you pick?
Key: large value

---

protocol summary: Log D7.4 shake-flask octanol-water
Format: physicochemical
condition info: pH 7.4
experimental endpoint: logD
Form field (numeric): enter value without unit.

Examples with their reported logD follow.
Cc1c(-c2cnc(N3CCCNCC3)nc2)ccc2c(Nc3cnccn3)ccnc12 [9e] ... 1.6
CN1CCCN(S(=O)(=O)c2ccc(-c3ccc4c(Nc5ccc(Cl)cn5)ccnc4c3)cc2)CC1 [5f] ... 4.5
CN1C[C@H]2C[C@@H]1CN2c1ncc(-c2ccc3c(Nc4cnccn4)ccnc3c2)cn1 [4a] ... 2.2
COc1ccc(NC(=O)c2ccc(-c3cnc(N4CCCN(C)CC4)nc3)cc2O)cc1Cl [7b] ... 3.4
CN1CCCN(c2ncc(-c3ccc4c(Nc5ccncn5)ccnc4c3)cn2)CC1 [5c] ... 2.2

Exercise: Item under review: Cc1c(-c2cnc(N3CCN(C)CC3)nc2)ccc2c(Nc3cnccn3)ccnc12 [9a] . Reported logD?
Key: 3.3

Exercise: Form field: reported logD of CC(C)(C)OC(=O)N1CCN(c2ncc(-c3ccc4c(Nc5cnccn5)ccnc4c3)cn2)CC1 [3a]
Key: 4.7

Exercise: Consider the compound shown here: CCCN1CCCN(c2ncc(-c3cc4nccc(Nc5cnccn5)c4cc3C)cn2)CC1 [8d] What is its recorded logD?
Key: 3.2

Exercise: What value of measured logD is listed for COc1ccc(Nc2ccnc3cc(-c4ccc(S(=O)(=O)N5CCCN(C)CC5)cc4)ccc23)cc1Cl [5e] ?
Key: 4.4

---

protocol summary: Aqueous pH 7.4 solubility
Assay type: physicochemical
condition info: phosphate buffer pH 7.4, 25 °C, 20-24 h; read-out: aq sol (aqueous solubility)
Given measured solubility, output met if it is greater than or equal to 900 µM and not met if not.

C[C@@H]1CNCCN1C(=O)c1ccc(-c2cccc(N3CCOCC3)c2)cc1N [S4d] ... met
C[C@@H]1CNCCN1C(=O)c1ccc(-c2cnc(N3CCCN(C)CC3)nc2)cc1N [S4c] ... met

Exercise: Check this compound for solubility at or above 900 µM: O=S(=O)(c1ccc(-c2ccc3nccc(NCCC4CCOCC4)c3c2)cc1)N1CCOCC1 [S3h]
Key: not met

Exercise: Does the reported solubility for CN(C)CCN(C)c1ncc(-c2ccc3c(Nc4cnccn4)ccnc3c2)cn1 [S2c] fall at or above the 900 µM mark?
Key: not met

Exercise: Would you say O=S(=O)(c1ccc(-c2ccc3nccc(NCCN4CCCC4)c3c2)cc1)N1CCOCC1 [S3e] shows solubility at minimum 900 µM?
Key: not met
